Reported pIC50 values for the following compounds.
tgt: human TLR8 (Homo sapiens, UniProt Q9NR97)
Sequence (Q9NR97 27-1041): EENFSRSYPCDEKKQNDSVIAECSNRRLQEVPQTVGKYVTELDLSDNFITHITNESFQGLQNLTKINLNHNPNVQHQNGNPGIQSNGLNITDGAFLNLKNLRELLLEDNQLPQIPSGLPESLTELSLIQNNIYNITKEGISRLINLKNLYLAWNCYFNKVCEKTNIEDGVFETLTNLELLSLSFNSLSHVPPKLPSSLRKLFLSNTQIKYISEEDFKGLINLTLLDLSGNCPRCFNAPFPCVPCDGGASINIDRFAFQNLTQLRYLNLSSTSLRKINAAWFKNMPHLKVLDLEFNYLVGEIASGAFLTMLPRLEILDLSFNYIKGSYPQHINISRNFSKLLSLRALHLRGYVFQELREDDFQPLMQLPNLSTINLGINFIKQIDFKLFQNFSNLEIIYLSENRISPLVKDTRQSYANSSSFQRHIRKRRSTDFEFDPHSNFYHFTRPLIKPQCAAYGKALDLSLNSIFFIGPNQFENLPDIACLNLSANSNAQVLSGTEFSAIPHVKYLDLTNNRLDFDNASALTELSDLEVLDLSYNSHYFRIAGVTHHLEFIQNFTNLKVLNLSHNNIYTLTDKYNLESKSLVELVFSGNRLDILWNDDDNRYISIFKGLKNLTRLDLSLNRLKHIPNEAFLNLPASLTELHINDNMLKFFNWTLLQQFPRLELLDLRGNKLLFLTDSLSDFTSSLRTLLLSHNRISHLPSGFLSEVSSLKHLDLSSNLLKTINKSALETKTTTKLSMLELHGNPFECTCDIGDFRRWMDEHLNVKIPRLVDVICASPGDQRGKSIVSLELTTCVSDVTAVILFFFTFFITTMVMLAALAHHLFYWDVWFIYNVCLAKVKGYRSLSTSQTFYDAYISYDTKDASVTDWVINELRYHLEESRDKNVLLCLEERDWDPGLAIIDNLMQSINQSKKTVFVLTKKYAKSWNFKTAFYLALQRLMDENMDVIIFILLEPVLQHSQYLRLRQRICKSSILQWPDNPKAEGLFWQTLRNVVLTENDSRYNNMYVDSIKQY
assay.protocol: TLR8 inhibition reporter assay (HEK-Blue cells, secreted embryonic alkaline phosphatase reporter)
condition.notes: HEK-Blue cells overexpressing human TLR8, stimulated with R848 15.9 μM; read-out: TLR 8 IC50
pIC50: −log10 of the molar value.

Cc1cc(C2CCN(C3CCN(CC(C)C)CC3)CC2)cc2[nH]c(-c3ccc4nccn4c3)nc12 : < 4.30

pIC50 for CS(=O)(=O)c1ccc(-c2nc3c(F)cc(C4CCN(C5CC6CCC(C5)N6C5CCC5)CC4)cc3n2C2CC2)cc1 (single isomer, unassigned) [Example 327] is 4.74

pIC50 for Cc1cc(C2CCN(C3CCCN(C4CCOCC4)CC3)CC2)cc2c1nc(-c1ccc(S(C)(=O)=O)cc1)n2C (single isomer, unassigned) [Example 306] is < 4.30

---

tgt: human TLR8 (Homo sapiens, UniProt Q9NR97)
Construct: host or cells: HEK-Blue cells (HEK293-derived reporter line)
assay.protocol: TLR8 inhibition reporter assay (HEK-Blue cells, secreted embryonic alkaline phosphatase reporter)
Assay type: cell-based
condition.notes: HEK-Blue cells overexpressing human TLR8, stimulated with R848 15.9 μM; read-out: TLR 8 IC50
outcome.measure: IC50

For orientation, consider the following solved cases.
Cn1c(-c2ccc(S(C)(=O)=O)cc2)nc2ccc(C3CCN(C4CCCN(C5CCC5)CC4)CC3)c(F)c21 (centres unmarked) [Example 312] : > 50 µM
Cc1cc(C2CCN(C3CCN(C(C)C)CC3)CC2)cc2c1nc(-c1ccc(S(N)(=O)=O)cc1)n2C : > 50 µM
COc1ccc(-c2nc3c(C)cc(C4CCN(C5CC6CCC(C5)N6CC(C)C)CC4)cc3n2C)cc1OC (single isomer, unassigned) [Example 17] : > 50 µM
CC(C)N1CCC(N2CCC(c3cc4c(cc3F)nc(-c3ccc(S(C)(=O)=O)cc3)n4C)CC2)CC1 : > 50 µM

IC50 for Cc1cc(C2CCN(C3CCN(CC(C)C)CC3)CC2)cc2c1nc(-c1ccc(S(C)(=O)=O)c(F)c1)n2C is > 25 µM

IC50 for Cn1c(-c2ccc(S(C)(=O)=O)cc2)nc2c(F)cc(C3CCN(C4CC5CCC(C4)N5C4CCOCC4)CC3)cc21 (single isomer, unassigned) [Example 288] is > 50 µM

IC50 for CC(C)N1C2CCC1CC(N1CCC(c3ccc4nc(-c5ccc(S(C)(=O)=O)cc5)n(C)c4c3F)CC1)C2 (single isomer, unassigned) [Example 104] is > 50 µM

IC50 for COCCN1CCCC(N2CCC(c3cc(C)c4nc(-c5ccc(S(C)(=O)=O)cc5)n(C)c4c3)CC2)CC1 (single isomer, unassigned) [Example 308] is > 50 µM

IC50 for Cc1cc(-c2ccc(C3CCN(C4CCOCC4)CC3)cc2)cc2c1nc(-c1ccc(S(C)(=O)=O)cc1)n2C is > 50 µM

---

tgt: human TLR8 (Homo sapiens)
assay.protocol: TLR8 inhibition reporter assay (HEK-Blue cells, secreted embryonic alkaline phosphatase reporter)
condition.notes: HEK-Blue cells overexpressing human TLR8, stimulated with R848 15.9 μM; read-out: TLR 8 IC50
outcome.measure: IC50

IC50 for CC(C)N1CCCC(N2CCC(c3ccc4nc(-c5ccc(S(C)(=O)=O)cc5)n(C)c4c3F)CC2)CC1 (single isomer, unassigned) [Example 114] is 16.7 µM

IC50 for Cc1cc(C2CCN(C3CCN(C4CC4)CC3)CC2)cc2c1nc(-c1ccc(S(C)(=O)=O)c(F)c1)n2C is > 25 µM

IC50 for Cn1c(-c2ccc(S(C)(=O)=O)cc2)nc2cc(F)c(C3CCN(C4CCN(C5CC5)CC4)CC3)cc21 is > 50 µM

IC50 for COc1ccc(-c2nc3c(C)cc(C4CCN(C5CC6(C5)CN(CC(C)C)C6)CC4)cc3n2C)cc1OC [Example 47, tris(2,2,2-trifluoroacetate)] is > 50 µM

IC50 for CC(C)N1C2CCC1CC(N1CCC(c3ccc4nc(-c5ccc(S(C)(=O)=O)cc5)[nH]c4c3F)CC1)C2 (single isomer, unassigned) [Example 94] is > 50 µM

IC50 for COc1ccc(-c2nc3ccc(C4CCN(C5CCN(C(C)C)CC5)CC4)cc3n2C(C)C)cc1OC is > 50 µM

---

tgt: human TLR8 (Homo sapiens)
Construct: host or cells: HEK-Blue cells (HEK293-derived reporter line)
assay.protocol: TLR8 inhibition reporter assay (HEK-Blue cells, secreted embryonic alkaline phosphatase reporter)
Type: cell-based
condition.notes: HEK-Blue cells overexpressing human TLR8, stimulated with R848 15.9 μM; read-out: TLR 8 IC50
Reported IC50 values for the following compounds.

CC(C)CN1C2CCC1CC(N1CCC(c3cc(F)c4nc(-c5ccc(S(C)(=O)=O)cc5)n(C)c4c3)CC1)C2 (stereo not shown) [Example 284] : > 50 µM
Cc1cc(C2CCN(C3CC4CCC(C3)N4CC(C)C)CC2)cc2c1nc(-c1ccc(S(C)(=O)=O)c(F)c1)n2C (stereo not shown) [Example 342] : > 25 µM
Cc1cc(C2CCN(C3CCN(C4CC4)CC3)CC2)cc2c1nc(-c1ccc(S(C)(=O)=O)cc1)n2C [Example 53] : > 50 µM

Please find the next compound below.
IC50 for Cc1cc(-c2ccc(CN3CCC(N(C)C4CC4)CC3)c(F)c2)cc2c1nc(-c1ccc(S(C)(=O)=O)cc1)n2C [Example 394] is 5.7 µM

---

tgt: human TLR8 (Homo sapiens)
Construct: host or cells: HEK-Blue cells (HEK293-derived reporter line)
assay.protocol: TLR8 inhibition reporter assay (HEK-Blue cells, secreted embryonic alkaline phosphatase reporter)
Assay type: cell-based
condition.notes: HEK-Blue cells overexpressing human TLR8, stimulated with R848 15.9 μM; read-out: TLR 8 IC50
Reported IC50 values for the following compounds.

For orientation, consider the following solved cases.
COc1cc(-c2nc3c(C)cc(C4CCN(C5CC6CCC(C5)N6C5CC5)CC4)cc3[nH]2)cn2ncnc12 (stereo not drawn) [Example 360] : 26.3 µM
COc1ccc(-c2nc3c(C)cc(C4C[C@H]5CC[C@@H](C4)N5C4CCN(C(C)C)CC4)cc3n2C)cc1OC (mixture of isomers) [Example 21] : > 50 µM

Please find the next compound below.
IC50 for Cn1c(-c2ccc(S(C)(=O)=O)cc2)nc2c(F)cc(C3CCN(C4CCCN(C5COC5)CC4)CC3)cc21 (single isomer, unassigned) [Example 109] is > 50 µM

---

tgt: human TLR8 (Homo sapiens, UniProt Q9NR97)
assay.protocol: TLR8 inhibition reporter assay (HEK-Blue cells, secreted embryonic alkaline phosphatase reporter)
condition.notes: HEK-Blue cells overexpressing human TLR8, stimulated with R848 15.9 μM; read-out: TLR 8 IC50
Reported IC50 values for the following compounds.
Unit µM implied. Number only.

For orientation, consider the following solved cases.
Cc1cc(-c2ccc(CN3CCC(N4CCCC4)CC3)c(F)c2)cc2c1nc(-c1ccc(S(C)(=O)=O)cc1)n2C : 7.3
Cc1cc(-c2cccc(CN3CCC(N4CCCC4)CC3)c2)cc2c1nc(-c1ccc(S(C)(=O)=O)cc1)n2C1CC1 : 5
COc1cc(-c2nc3c(C)cc(C4CCN(C5CC6CCC(C5)N6C(C)C)CC4)cc3n2C)cn2ncnc12 (stereo not shown) : 7.9

Please find the next compound below.
Reported human TLR8 (Homo sapiens, UniProt Q9NR97) IC50 for item Cn1c(-c2ccc(S(C)(=O)=O)cc2)nc2c(F)cc(-c3ccc(CN4CCC(N5CCCC5)CC4)cc3)cc21 was 1

---

tgt: human TLR9 (Homo sapiens)
Construct: host or cells: HEK-Blue cells (HEK293-derived reporter line)
Sequence (Q9NR96 26-1032): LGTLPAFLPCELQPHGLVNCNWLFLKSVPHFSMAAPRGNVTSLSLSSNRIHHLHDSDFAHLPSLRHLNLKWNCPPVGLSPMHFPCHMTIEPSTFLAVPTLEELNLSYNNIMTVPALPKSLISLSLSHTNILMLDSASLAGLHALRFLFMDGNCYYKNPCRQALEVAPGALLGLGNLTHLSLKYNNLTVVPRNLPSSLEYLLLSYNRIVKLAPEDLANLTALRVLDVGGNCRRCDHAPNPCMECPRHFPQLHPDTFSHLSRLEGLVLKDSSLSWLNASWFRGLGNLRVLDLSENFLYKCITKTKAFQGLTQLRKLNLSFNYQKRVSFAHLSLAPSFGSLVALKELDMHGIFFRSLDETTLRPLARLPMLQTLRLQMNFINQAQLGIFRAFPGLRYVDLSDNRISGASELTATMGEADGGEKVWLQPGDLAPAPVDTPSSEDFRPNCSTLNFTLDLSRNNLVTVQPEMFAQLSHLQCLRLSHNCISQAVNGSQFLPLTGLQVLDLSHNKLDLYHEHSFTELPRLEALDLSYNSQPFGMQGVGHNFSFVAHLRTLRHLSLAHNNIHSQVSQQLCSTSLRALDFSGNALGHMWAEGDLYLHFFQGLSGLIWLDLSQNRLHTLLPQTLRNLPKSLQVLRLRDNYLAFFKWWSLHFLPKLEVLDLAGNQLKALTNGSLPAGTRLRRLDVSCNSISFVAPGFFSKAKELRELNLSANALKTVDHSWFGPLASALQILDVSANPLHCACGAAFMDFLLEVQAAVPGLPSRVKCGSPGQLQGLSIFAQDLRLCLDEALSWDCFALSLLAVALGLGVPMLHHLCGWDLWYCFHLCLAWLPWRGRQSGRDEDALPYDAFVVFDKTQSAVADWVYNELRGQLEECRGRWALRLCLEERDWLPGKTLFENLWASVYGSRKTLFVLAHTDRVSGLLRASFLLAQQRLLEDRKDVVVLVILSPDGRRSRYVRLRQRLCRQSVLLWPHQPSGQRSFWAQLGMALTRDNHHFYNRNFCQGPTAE
assay.protocol: TLR9 inhibition reporter assay (HEK-Blue cells, secreted embryonic alkaline phosphatase reporter)
Format: cell-based
condition.notes: HEK-Blue cells overexpressing human TLR9, stimulated with ODN2006 5 nM; read-out: TLR 9 IC50
outcome.measure: pIC50
Notebook: values listed as pIC50 are -log10 of the concentration (mol/L).

For orientation, consider the following solved cases.
COc1ccc(-c2nc3c(C)cc(C4CCN(C5CC6(C5)CN(C(C)C)C6)CC4)cc3n2C)cc1OC [Example 16, tris(2,2,2-trifluoroacetate)] : 7.98
Cc1cc(C2CCN(C3CC4CCC(C3)N4C3CC3)CC2)cc2[nH]c(-c3ccc(S(C)(=O)=O)c(F)c3)nc12 (stereo not shown) : 7.36
Cn1c(-c2ccc(S(C)(=O)=O)cc2)nc2c(F)c(C3CCN(C4CC5CCC(C4)N5C4COC4)CC3)ccc21 (stereo not shown) [Example 196] : 6.24

Reported human TLR9 (Homo sapiens) pIC50 for item COc1ccc(-c2nc3ccc(C4CCN(C5CCN(C6CC6)CC5)CC4)cc3[nH]2)cc1OC was 7.95

Reported human TLR9 (Homo sapiens) pIC50 for item Cn1c(-c2ccc(S(C)(=O)=O)cc2)nc2c(F)c(C3CCN(C4CC5CCC(C4)N5CC4CC4)CC3)ccc21 (single isomer, unassigned) [Example 191] was 7.02

Reported human TLR9 (Homo sapiens) pIC50 for item COc1ccc(-c2nc3c(F)cc(C4CCN(C5CCN(CC(C)C)CC5)CC4)cc3[nH]2)cc1OC was 7.51

Reported human TLR9 (Homo sapiens) pIC50 for item COc1ccc(-c2nc3c(C)cc(C4CCN(C5CC6CCC(C5)N6C5COC5)CC4)cc3n2C)cc1OC (single isomer, unassigned) [Example 165] was 5.89

Reported human TLR9 (Homo sapiens) pIC50 for item CC(C)CN1C2CCC1CC(N1CCC(c3ccc4nc(-c5ccc(S(C)(=O)=O)cc5)[nH]c4c3F)CC1)C2 (single isomer, unassigned) [Example 220] was 6.17

Reported human TLR9 (Homo sapiens) pIC50 for item Cc1cc(C2CCN(C3CC4CCC(C3)N4CC3CCC3)CC2)cc2c1nc(-c1ccc(S(C)(=O)=O)cc1)n2C (single isomer, unassigned) [Example 157] was 6.47

Reported human TLR9 (Homo sapiens) pIC50 for item Cn1c(-c2ccc(S(C)(=O)=O)cc2)nc2ccc(C3CCN(C4CCCN(C5CCC5)CC4)CC3)c(F)c21 (stereo not shown) [Example 312] was 7.19

Reported human TLR9 (Homo sapiens) pIC50 for item COCCN1C2CCC1CC(N1CCC(c3ccc4nc(-c5ccc(S(C)(=O)=O)cc5)n(C)c4c3F)CC1)C2 (single isomer, unassigned) [Example 277] was 6.57

Reported human TLR9 (Homo sapiens) pIC50 for item COc1cc(-c2nc3c(C)cc(C4CCN(C5CC6CCC(C5)N6C5CC5)CC4)cc3[nH]2)cn2ncnc12 (stereo not shown) was 8.01

Reported human TLR9 (Homo sapiens) pIC50 for item COc1ccc(-c2nc3c(C)cc(C4CCN(C5CCN(C(=O)C(C)C)CC5)CC4)cc3[nH]2)cc1OC was 6.29
